- Test system: STK10
- Design: species or system human, MV4-11 + K-562 + COLO205 + SK-N-BE2 + OVCAR-8
- CONDITION LABEL: read-out: apparent Kd; compound concentrations:100 nM and 1000 nM (sheet 'Samples'); n = 1
Lab note: compare potency estimated from few doses against 700 nM. Equal or greater, write 1. Smaller, write 0.

Is potency estimated from few doses for COc1ccc2cc(-c3c(-c4ccncc4)nc(-c4ccc(S(C)=O)cc4C)n3C)ccc2c1 (stereo not drawn) [SB-630812] at or above 700 nM?
1

Is potency estimated from few doses for NCCNS(=O)(=O)c1ccc(-c2ccnc3[nH]ccc23)cc1 [GSK977617A] at or above 700 nM?
1

Is potency estimated from few doses for CC(C)N1CCC(n2cnc(-c3ccc(F)cc3)c2-c2ccnc(N)n2)CC1 [SB-223132] at or above 700 nM?
1

Is potency estimated from few doses for C[C@@H](Oc1cc(-n2cnc3cc(-c4cnn(C)c4)ccc32)sc1C(N)=O)c1ccccc1Cl [GSK580432A] at or above 700 nM?
0

Is potency estimated from few doses for Cc1cccc(-c2nc(Nc3ccncc3)c3sccc3n2)n1 [GW869641X] at or above 700 nM?
1

Is potency estimated from few doses for CS(=O)(=O)CCn1c(=O)c(Oc2ccc(F)cc2F)cc2cnc(NC3CCOCC3)nc21 [RO5027956-000] at or above 700 nM?
1

Is potency estimated from few doses for COc1cc2ncn(-c3cc(O[C@H](C)c4ccccc4Cl)c(C(N)=O)s3)c2cc1OC [GSK237701A] at or above 700 nM?
0

Is potency estimated from few doses for O=C(Nc1n[nH]c2nc(-c3ccccc3O)ccc12)C1CC1 [SB-711880] at or above 700 nM?
1

---

- System: PKN1;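 note: competition pulldown with Kinobeads ε in cell lysates, inhibitor preincubated 45 min at 4 °C, bound kinases quantified by LC–MS/MS against DMSO control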
- Set-up: species or system human, MV4-11 + K-562 + COLO205 + SK-N-BE2 + OVCAR-8
- CONDITION LABEL: compound concentrations:0.3nM, 1nM, 3nM, 10nM, 30nM, 100nM, 300nM, 1000nM,R2:0.97867991540409105,slope:0.79419686113227705,EC50 Standard Error, by the legend:Standard error of the EC50 estimation as provided by the drc package.
READOUT TYPE: EC50

Data request, read-out EC50, for CCn1c(-c2nonc2N)nc2c(C#CC(C)(C)O)nc(OCCNC)cc21.Cl [GSK949675A]
4.24 µM

---

- Tested on: AXL
- Set-up: species or system human, MV4-11 + K-562 + COLO205 + SK-N-BE2 + OVCAR-8
- CONDITION LABEL: read-out: apparent Kd; compound concentrations:100 nM and 1000 nM (sheet 'Samples'); n = 1
Please respond with reported potency estimated from few doses for every item in the list.
Value expressed in nM; do not type the unit.

Data request, read-out potency estimated from few doses, for NCCNS(=O)(=O)c1ccc(-c2ccnc3[nH]ccc23)cc1 [GSK977617A]
1330

Data request, read-out potency estimated from few doses, for Cc1cccc(CC(=O)N2CCc3c2ccc(-c2cn(C)c4ncnc(N)c24)c3F)n1 [GSK2656157]
503

Data request, read-out potency estimated from few doses, for CNC(=O)c1ccccc1Nc1nc(Nc2ccc(N3CCOCC3)cc2)ncc1Cl.Cl [GSK1576028A]
732

Data request, read-out potency estimated from few doses, for O=C1NC(=O)C(N2CCc3ccccc32)=C1c1ccccc1Cl [SB-373598]
775

Data request, read-out potency estimated from few doses, for Cl.Cl.NCC(C(=O)Nc1cc(Br)c(-c2ccnc3[nH]ccc23)s1)c1ccccc1.NCC(C(=O)Nc1cc(Br)c(-c2ccnc3[nH]ccc23)s1)c1ccccc1 (centres unmarked) [GSK1269851A]
1610
